Provide the recorded Papp for the entries that follow.
# assay: Permeability of the compound at pH 7.4 by PAMPA assay
# Format: ADME
# particulars: read-out: permeability

Prompt: Fill in: Papp of CN(C)C(=O)Cc1ccc2cc[nH]c2c1 is ___
Completion: 1.3 ×10⁻⁶ cm/s

Prompt: Give its Papp value. Item: CN(C)C(=O)Cc1ccc2ccn(C)c2c1
Completion: 7.6 ×10⁻⁶ cm/s

Prompt: Entry COC(=O)c1ccc2c(ccn2C(=O)c2ccccc2)c1 : reported Papp = ?
Completion: 0.5 ×10⁻⁶ cm/s

Prompt: Item c1ccc2cc(CN3CCCCC3)ccc2c1 has what recorded Papp?
Completion: 4.6 ×10⁻⁶ cm/s

Prompt: // lookup Papp for COC(=O)c1ccc2c(C(=O)c3ccccc3)cn(C(=O)c3ccccc3)c2c1
Completion: 2.1 ×10⁻⁶ cm/s

Prompt: Report Papp for CN(C)C(=O)c1cccc2ccccc12 please.
Completion: 8.3 ×10⁻⁶ cm/s

Prompt: What value of measured Papp is listed for Cn1cc(C(=O)c2ccccc2)c2cc(C(=O)NCc3cccnc3)ccc21 ?
Completion: 1.7 ×10⁻⁶ cm/s

Prompt: Would you kindly share the measured Papp for c1cc2ccc(CN3CCCCC3)ccc-2c1 ?
Completion: 3.4 ×10⁻⁶ cm/s

Prompt: Give the measured Papp of Cn1cc(C(=O)c2ccccc2)c2cc(C(=O)NCCc3cnc[nH]3)ccc21 .
Completion: 0.1 ×10⁻⁶ cm/s

Prompt: Consider the compound O=C(NCCc1cnc[nH]1)C1=CC2C(C(=O)c3ccccc3)=CN=C2C=C1 (centres undefined) and give its measured Papp.
Completion: < 0.01 ×10⁻⁶ cm/s

Prompt: Recorded Papp of COC(=O)c1ccc2ccn(C(=O)c3ccccc3)c2c1 , please.
Completion: 0.5 ×10⁻⁶ cm/s

Prompt: Given the compound COC(=O)c1ccc2c(C(=O)c3ccccc3)c[nH]c2c1 , what is its reported Papp?
Completion: 1.5 ×10⁻⁶ cm/s

Prompt: // Papp lookup, key: CN(C)C(=O)c1cn(C)c2ccccc12
Completion: 6.7 ×10⁻⁶ cm/s

Prompt: Fill blank: measured Papp of the compound O=C(NCCO)c1ccc2ccc(C(=O)c3ccccc3)c-2cc1 is ____.
Completion: 1.8 ×10⁻⁶ cm/s

Prompt: Sample Cn1c(NC(=O)c2cccnc2)cc2ccccc21 — what was its Papp?
Completion: 4.9 ×10⁻⁶ cm/s

Prompt: So what does the record say about Papp for NC(=O)C1CCN(C(=O)c2cccc3ccccc23)CC1 ?
Completion: 0.2 ×10⁻⁶ cm/s

Prompt: Which value of Papp has been reported for O=C(Nc1cc2cccccc-2c1)c1cccnc1 in the records?
Completion: 4.8 ×10⁻⁶ cm/s

Prompt: Could you share which Papp value was measured for Cn1c(NC(=O)Cn2ccccc2=O)cc2ccccc21 ?
Completion: 3.3 ×10⁻⁶ cm/s

Prompt: Dear colleague, I am looking for the recorded Papp of the following compound: Cn1cc(C(=O)c2ccccc2)c2cc(C(=O)NCCc3c[nH]c4ccccc34)ccc21
Completion: 0.04 ×10⁻⁶ cm/s

Prompt: Consider the compound shown here: COC(=O)c1ccc2c(C(=O)c3ccccc3)cc(C(=O)c3ccccc3)c-2cc1 What is its recorded Papp?
Completion: 0.3 ×10⁻⁶ cm/s

Prompt: Which value of Papp has been reported for CN(C)C(=O)Cc1ccc2cccc-2cc1 in the records?
Completion: 8.7 ×10⁻⁶ cm/s

Prompt: I have this compound here, CN(C)C(=O)c1ccc2cccccc1-2 , and I need its recorded Papp.
Completion: 7.6 ×10⁻⁶ cm/s

Prompt: What Papp value was documented for this compound, CN1CCN(C(=O)c2ccc3[nH]cc(C(=O)c4ccccc4)c3c2)CC1 ?
Completion: 0.2 ×10⁻⁶ cm/s

Prompt: // lookup Papp for Cn1cc(C(=O)c2ccccc2)c2cc(C(=O)NCCO)ccc21
Completion: 0.5 ×10⁻⁶ cm/s

Prompt: Quick one: Papp for Cn1cc(C(=O)N2CCC(C(N)=O)CC2)c2ccccc21 ?
Completion: 0.2 ×10⁻⁶ cm/s

Prompt: I would be grateful if you could share the reported Papp for COC(=O)c1ccc2ccc(C(=O)c3ccccc3)c-2cc1 .
Completion: 0.1 ×10⁻⁶ cm/s

Prompt: Please give the measured Papp for this compound: CN(C)C(=O)Cc1ccc2ccccc2c1
Completion: 4.7 ×10⁻⁶ cm/s

Prompt: Reported Papp for O=C(NCCc1c[nH]c2ccccc12)c1ccc2ccc(C(=O)c3ccccc3)c-2cc1 : what is it?
Completion: 0.03 ×10⁻⁶ cm/s

Prompt: Sample NC(=O)C1CCN(C(=O)c2ccc3cccccc2-3)CC1 — what was its Papp?
Completion: 0.5 ×10⁻⁶ cm/s
